Below is a list of entries, each paired with its recorded FRET-melting values in K+ conditions at 2 μM ΔTm FPf1T value.
Tested on: Plasmodium telomeric sequence FPf1T
Experiment: FRET-melting, FPf1T
Settings: K+ condition, 2 μM compound, 0.2 μM oligonucleotide
Where a name gives a salt, the structure may show the parent alone.
Output spec: scalar in °C, unitless text.

Please review the entries below; each comes with its answer.
INSERT INTO results (molecule, display_unit, meas_value) VALUES
  ('COC(=O)C(CCCCNCc1ccc(-c2nc(-c3ccc(CNCCCCC(NC(=O)OC(C)(C)C)C(=O)OC)cc3)c3ccn(C)c3n2)cc1)NC(=O)OC(C)(C)C (stereo not drawn) [Compound 10B]', '°C', 10.1),
  ('CN1CCN(CCCNCc2ccc(-c3nc(-c4ccc(CNCCCN5CCN(C)CC5)cc4)c4ccn(-c5ccccc5)c4n3)cc2)CC1 [Compound 2B, oxalate]', '°C', 19.1);

In plain terms, CN1CCN(CCCNCc2ccc(-c3nc(-c4ccc(CNCCCN5CCN(C)CC5)cc4)c4ccsc4n3)cc2)CC1 [Compound 27B, oxalate] has a documented FRET-melting values in K+ conditions at 2 μM ΔTm FPf1T of 9.6

====

Below is a list of entries, each paired with its recorded FRET-melting values in K+ conditions at 2 μM ΔTm FtryBT value.
Test system: Trypanosoma 9 and 11 chromosomic sequence FTrypBT
Experiment: FRET-melting, FTrypBT
Details: K+ condition, 2 μM compound, 0.2 μM oligonucleotide
Counter-ions that a name gives are not always drawn.
Output spec: scalar in °C, unitless text.

Short answer on Trypanosoma 9 and 11 chromosomic sequence FTrypBT for CN(C)CCCNCc1ccc(-c2nc(-c3ccc(CNCCCN(C)C)cc3)c3ccn(-c4ccc(CNCCCN(C)C)cc4)c3n2)cc1 [Compound 13B, oxalate] , FRET-melting values in K+ conditions at 2 μM ΔTm FtryBT: 30.7

Short answer on Trypanosoma 9 and 11 chromosomic sequence FTrypBT for CN(C)CCCNCc1ccc(-c2nc(-c3ccc(CNCCCN(C)C)cc3)c3ccsc3n2)cc1 [Compound 26B] , FRET-melting values in K+ conditions at 2 μM ΔTm FtryBT: 8.6

Short answer on Trypanosoma 9 and 11 chromosomic sequence FTrypBT for CN(C)CCCNCc1ccc(-c2nc(NCCCN(C)C)nc3ccsc23)cc1 [Compound 31B] , FRET-melting values in K+ conditions at 2 μM ΔTm FtryBT: 1.8

Short answer on Trypanosoma 9 and 11 chromosomic sequence FTrypBT for CN(C)CCCNCc1ccc(-c2nc(-c3ccc(CNCCCN(C)C)cc3)c3ccn(C)c3n2)cc1 [Compound 8B, oxalate] , FRET-melting values in K+ conditions at 2 μM ΔTm FtryBT: 9.4

Short answer on Trypanosoma 9 and 11 chromosomic sequence FTrypBT for CN(C)CCCNCc1ccc(-c2nc3c(c(-c4ccc(CNCCCN(C)C)cc4)n2)CCNC3)cc1 [Compound 25B] , FRET-melting values in K+ conditions at 2 μM ΔTm FtryBT: 8.0

Short answer on Trypanosoma 9 and 11 chromosomic sequence FTrypBT for CN(C)CCCNCc1ccc(-c2nc(-c3ccc(CNCCCN(C)C)cc3)c3sccc3n2)cc1 [Compound 29B] , FRET-melting values in K+ conditions at 2 μM ΔTm FtryBT: 17.1

Short answer on Trypanosoma 9 and 11 chromosomic sequence FTrypBT for CN(C)CCCCCNCc1ccc(-c2nc(-c3ccccc3)c3ccn(-c4ccc(CNCCCCCN(C)C)cc4)c3n2)cc1 [Compound 35B, oxalate] , FRET-melting values in K+ conditions at 2 μM ΔTm FtryBT: 21.55
